Test system: MDA-MB-231 breast
Experiment: NCI tumour cell line growth inhibition, 48 h
Recorded metric: GI50

Query smiles | Experimental result
Cc1[nH]c(/C=C2\C(=O)Nc3ccccc32)c(C)c1CCC(=O)O | 20.7 µM
CCCCCOc1ccc(/C=N/Nc2cc(C)nc3ccc(Br)cc23)cc1 | 1.77 µM
N=C(N)c1ccc2nc(-c3cc(CC(=O)N[C@@H](CC(=O)O)C(=O)O)cc(-c4cc(S(N)(=O)=O)ccc4O)c3O)[nH]c2c1 | > 100 µM
O=C(Nc1ccc(-n2ccc3c(NC(=O)c4ccccc4)nccc32)cc1)Nc1ccc(Cl)c(Cl)c1 | 1.23 µM
COc1ccc(-n2c(C)cc(-c3ccccc3)c2C)cc1 | 1.56 µM

Recorded result, COc1cc(C(=O)N2CCN(c3ncccn3)CC2)c(N)cc1OCc1ccccc1 , GI50: > 100 µM

Measured GI50 of NC(=O)c1cc(S(=O)(=O)Nc2nnc(-c3ccccc3)c(-c3ccccc3)n2)c(SCc2ccccc2)cc1Cl : > 85.4 µM

====

Readings of TGI for the listed compounds
Tested on: HCT-15 colon
Assay: NCI tumour cell line growth inhibition, 48 h

// solved cases for TGI follow
Query smiles | Experimental result
CCN(Cc1ccccc1C)c1ccc(CO)c(Cl)c1 | 29.3 µM
CC1=NC(=Cc2cc(Br)cc(Br)c2)C(=O)N1n1c(-c2ccccc2)nc2ccccc2c1=O | > 100 µM

// O=C1/C(=C/c2cccc(Br)c2)Cc2ccccc21 : TGI value = > 100 µM

TGI in this record for COc1ccc(O)c(C(=O)c2ccc(C(=O)N[C@H]3CCCNC[C@@H]3NC(=O)c3ccncc3)cc2)c1F : > 25 µM

The recorded TGI for Cc1nc([N+](=O)[O-])cn1CC(=N)N is > 100 µM

====

Test system: M14 melanoma
Experiment: NCI tumour cell line growth inhibition, 48 h
Recorded metric: TGI

Here is how some compounds turned out for TGI.
Compound | Subject of test | TGI
CCCO/S(=N\S(=O)(=O)c1ccccc1)c1ccccc1[N+](=O)[O-] (stereo unspecified) | M14 melanoma | > 100 µM
S=c1[nH]c(=S)c2nnn(-c3ccccc3)c2[nH]1 | M14 melanoma | > 100 µM
NCCSc1nc(-c2ccccc2)c(-c2ccccc2)o1 | M14 melanoma | > 100 µM
COc1ccc2[nH]c3c(c2c1)CC(=S)N1CCCC(CC3=O)C1 (stereo unspecified) | M14 melanoma | > 100 µM
c1ccc2nc3c(nc2c1)sc1ccccc13 | M14 melanoma | > 100 µM

Here is the next item to consider.
The compound O=C1c2ccccc2-c2c1c1ccccc1c(=O)n2CCCCl , when measured on M14 melanoma, yielded TGI of > 100 µM

====

System: A498 renal
Assay: NCI tumour cell line growth inhibition, 48 h
Recorded metric: TGI

Compound | Experimental result
N#CC(OC1OC(COC2OC(CO)C(O)C(O)C2O)C(O)C(O)C1O)c1ccccc1 (stereo unspecified) | > 225 µM
CCOC(=O)c1nc2ccc(C(F)(F)F)cc2[nH]c1=O | > 100 µM
CCn1sc2ccccc2c1=O | > 60 µM
CCOC(=O)c1c(NC(=O)OC)c(C#N)c2n1CCCCC2 | > 100 µM

Input [N-]=[N+]=Nc1cc(=O)n2c3c(cccc13)CCC2 . Output TGI: > 100 µM

# compound Cn1c(=O)oc2cc(C(O)CN3CCN(Cc4ccccn4)CC3)c(Cl)cc21 (stereo unspecified) ; its TGI = > 100 µM

====

Each entry below carries its reported TGI.
System: MALME-3M melanoma
Test: NCI tumour cell line growth inhibition, 48 h

Example entries begin here.
Compound | Experimental result
Cc1cc(S(=O)(=O)O)c(NC(=O)C(=O)Cc2cc(=O)oc3cc(O)ccc23)cc1Cl | > 100 µM
[N-]=[N+]=Nc1cc(=O)[nH]nc1-c1ccccc1 | > 100 µM
Cc1cc(C)c(/C=C2\C(=O)Nc3ccc(NC(=O)CCCCCCC(=O)NO)cc32)[nH]1 | > 27.4 µM
O=C1NC(=NCCc2cccc(Cl)c2)S/C1=C\c1ccc2ncccc2c1 | > 25 µM
O=S(=O)(c1ccccc1)C1CN2OC1(S(=O)(=O)c1ccccc1)CC2c1ccc(Br)cc1 (configuration not stated) | > 100 µM
Cc1nc2ccc(NC(=S)Nc3ccccc3)cc2c(=O)n1-c1ccccc1 | > 100 µM
CC1CC[C@@]2(OC1)OC1C[C@H]3[C@@H]4CC[C@H]5CC(OC6OC(CO)C(O)C(OC7OC(CO)C(OC8OC(CO)C(O)C(OC9OC(CO)C(O)C(O)C9O)C8OC8OC(CO)C(O)C(O)C8O)C(O)C7O)C6O)[C@H](O)CC5(C)[C@H]4CCC3(C)C1[C@@H]2C (some centres not stated) | 15.1 µM
c1ccc(NN=C(c2ccccn2)c2ccccn2)nc1 | 26.1 µM
COc1c[c]([Hg][O]C(C)=O)c(OC)c(NC(=O)CC(C)=O)[c]1[Hg][O]C(C)=O | 3 µM
Cc1cc2c(cc1C)C(=O)C1(C2)Cc2c(C)ccc(C)c2C1=O (configuration not stated) | > 100 µM

Entry COC(=O)/C=C/c1c(CC=C(C)C)ncn1C ; TGI = > 100 µM

Record summary for O=[N+]([O-])/C(C(Cl)=C(Cl)Cl)=C(/Nc1ccccc1)SCc1ccccc1 : reported TGI = 30.1 µM

The compound O=P1(c2ccccc2)CCCCC1 showed TGI equal to > 100 µM

Sample Cc1ccc(NC(=O)CSc2nnc(-c3ccc(N=Cc4ccc(Cl)cc4)cc3)o2)cc1 ; TGI observed: > 100 µM

The recorded TGI for O=[N+]([O-])c1ccc(N2N=C(c3ccc(NCc4nc5ccccc5[nH]4)cc3)CC2c2ccco2)cc1 (configuration not stated) is 66.4 µM

What the record says about CCCCCCOc1ccc(Nc2c(O)c3c(c(O)c2Cl)C(=O)C=CC3=O)cc1 : TGI is 4.04 µM

TGI reading for CCOc1ccncc1[N+](=O)[O-] : > 100 µM

====

System: 786-0 renal
Experiment: NCI tumour cell line growth inhibition, 48 h
Reported TGI is given for each of the following compounds.

Compound | Experimental result
O=C(c1ccccc1)c1c(-c2ccccc2)n(-c2ccccc2)[nH]c(=O)c1=O | > 100 µM

Looking up O=[N+]([O-])/C(C(Cl)=C(Cl)Cl)=C(/Nc1ccccc1)SCc1ccccc1 , I see its TGI listed as 31.1 µM

Short answer for COc1cccc2cc(C(=O)O)c(=O)oc12 : TGI was > 100 µM

Entry CC(=O)O/C(=C1\C[C@H]2[C@@H]3CC=C4C[C@@H](OC(C)=O)CC[C@]4(C)[C@H]3CC[C@]2(C)C1=O)C(F)(F)F — recorded TGI = 20.6 µM

Field TGI (entry Cc1cccc(C)c1NC(=O)C(=O)C(C(=O)c1ccccc1-c1ccccc1)C1OC(=O)c2ccccc21 (centres undefined) ) reads 37 µM

====

Tested on: MDA-MB-435
Listed here: items and their measured GI50.

Molecule | Subject of test | GI50
COc1cc2c(c(OC)c1OC)-c1ncc3cc4c(cc3c1C2)OCO4 | MDA-MB-435 | 13200 nM
CCOC(=O)c1c(NC(=O)c2cccc(C(F)(F)F)c2)sc2c(CN(C)C)c(O)ccc12 | MDA-MB-435 | 3150 nM
C1=C\COCc2cc(ccc2OCCN2CCCC2)Nc2nccc(n2)-c2cccc(c2)COC/1 | MDA-MB-435 | 1530 nM
O[C@H](c1cc(C(F)(F)F)nc2c(C(F)(F)F)cccc12)[C@@H]1CCCCN1 | MDA-MB-435 | 2430 nM
COC(=O)[C@@H](C)C[C@H](Cc1ccccc1)NC(=O)c1csc([C@@H](C[C@H](C(C)C)N(C)C(=O)[C@@H](NC(=O)[C@H]2CCCCN2C)C2CCCCC2)OC(C)=O)n1 | MDA-MB-435 | < 0.1 nM
CCN1C(=O)N(CC)C2C1NN=c1s/c(=C3\C(=O)N(CC(C)(C)C)c4ccccc43)c(=O)n12 (configuration not stated) | MDA-MB-435 | 1540 nM

Moving on to the next molecule.
Summary: O=C1NC(=O)/C(=C\c2ccccc2)C2=C1CCCC2 , MDA-MB-435, GI50 = 1820 nM

====

Tested on: SF-295 CNS
Experiment: NCI tumour cell line growth inhibition, 48 h
Recorded metric: TGI (µM)
Write the value in µM as a bare number.

Compound | Subject of test | TGI, µM
Cc1ccccc1N/C(=C(/C(Cl)=C(Cl)Cl)[N+](=O)[O-])n1nnc2ccccc21 | SF-295 CNS | 28.8
O=C(O)c1nc2ccc(C(F)(F)F)cc2nc1NCc1ccc(F)cc1 | SF-295 CNS | 81.1

Looking up O=c1oc2ccccc2cc1-c1cn2ccccc2n1 , I found its TGI recorded as 13.5

// COC(=O)c1ccccc1Nc1nc(-c2cccs2)nc2cc(OC)c(OC)cc12 : TGI value = 97.7

Documented TGI of CCN1CCC(O)(/C=C/c2ccc(C)cc2)C(C(=O)/C=C/c2ccc(C)cc2)C1 (stereo unspecified) : 22.9

Kindly note the recorded TGI for Cc1cc(C)c(NC(=O)c2sc3nc4c(cc3c2N)CN(Cc2ccccc2)CC4)c(C)c1 , which is 64.7

Note to self: TGI recorded for C=C1C(=O)O[C@H]2[C@H]1CC/C(COC(=O)/C=C\C(=O)NCc1ccc(Cn3c(=O)sn(CCCC)c3=O)cc1)=C\CC[C@@]1(C)O[C@@H]21 was 3.24
